System: LOX IMVI
Assay: NCI tumour cell line growth inhibition, 48 h
The source made the active and inactive calls. Rule as the data show it: active = GI50 up to about 1.1 µM and inactive = higher.
GI50 by entry:

CC1(C)COC(/C=C/C2=NC(C)(C)CO2)=N1; 3.25 µM (inactive)

Query string: GI50 lookup needed for CC1=CC(=O)NP(=O)(C23CC4CC(CC(C4)C2)C3)N1 (stereo not drawn) , thanks.
Result string: > 100 µM (inactive)

Query string: CN1C(=O)C(CCO)(C(C)(C)C)c2ccccc21 (stereo not drawn) ?
Result string: > 100 µM (inactive)

Query string: Again, but for `CC1(C)CC(=O)c2c(oc3cc(O)c(O)cc23)C1`
Result string: 17.1 µM (inactive)

Query string: Another compound to check: `N=C(N)NCCCC(=O)O`
Result string: > 100 µM (inactive)

Query string: Further, for O=C1CSC(c2c(O)ccc3ccccc23)N1n1c(S)nnc(/C=C/c2c(O)ccc3ccccc23)c1=O (stereo not drawn) ?
Result string: 1.44 µM (inactive)

Query string: Another compound to check: `O=C(CCCN1CCC(Nc2ccc(F)cc2)(c2nnnn2C2CCCCC2)CC1)c1ccc(F)cc1`
Result string: 19.4 µM (inactive)

Query string: // query: CC(=O)Nc1ccc(C(=O)NN2C(=O)C(Cl)C2c2ccc(O)cc2)cc1 (stereo not drawn)
Result string: > 100 µM (inactive)

Query string: Can you handle `O=C1c2ccccc2C(=O)N1C(=S)c1ccccc1` next?
Result string: > 100 µM (inactive)

Query string: Further, for `COc1ccc(C(=O)Cn2c(C(C)=O)nc3ccccc32)cc1` ?
Result string: 2.91 µM (inactive)

Query string: Would you mind doing `CCCCCCCC/C=C\CCCCCCCC(=O)OC[C@]1(CO)CCC(=O)O1` as well?
Result string: > 100 µM (inactive)

Query string: // repeat for `c1ccc(-c2cn3c(nc4ccccc43)c(-c3ccccc3)n2)cc1` and report
Result string: 81.8 µM (inactive)

Query string: // query: `Cc1c(C(=O)CSc2nc3ccccc3[nH]2)c(=O)n(-c2ccccc2)n1C`
Result string: > 100 µM (inactive)

Query string: Would you mind doing `Clc1ccc(Cl)c(/N=N\c2cc3c4c(c2)CCN4CCC3)c1` as well?
Result string: > 10 µM (inactive)

Query string: Queued: `O=C1C(Cl)=C(c2ccc([N+](=O)[O-])cc2)C(=O)c2c(O)cccc21`
Result string: 1.39 µM (inactive)

Query string: Cool, now `Cc1ccc(C)n1-n1c(Cc2ccc(Cl)cc2)n[nH]c1=O`
Result string: 59.4 µM (inactive)

Query string: Let us now turn to `O=C(O)/C(=C\c1ccccc1)Cc1ccccc1`
Result string: > 100 µM (inactive)

Query string: Can you check CCCCCCCCCCCCCC(=O)OCC1OC(=O)CC1O (stereo not drawn) next?
Result string: 51.5 µM (inactive)

Query string: Another compound to look at: `COc1c(C(=O)/C(=N/Nc2ccc(C(=O)O)cc2)C(C)=O)c(O)cc2occc12`
Result string: > 100 µM (inactive)

Query string: Same question, Cc1cc(O)c2c(c1)C(=O)C(c1c(C)cc3c(c1O)C(=O)C1OC1C3=O)=CC2=O (stereo not drawn) this time
Result string: 2.02 µM (inactive)
